Numbers sourced from patent USRE38330E1.

biological target: AGE-BSA previously crosslinked to the collagen (Bos taurus, UniProt P02769); construct: Type V BSA (bovine serum albumin); purchased Calbiochem (BSA Type V); Collaborative Biomedical Products (Biocoat rat tail collagen type I plates); assay: Sandwich enzyme immunoassay for breaking of AGE moieties from AGE-BSA crosslinked to collagen (AGE breaker assay); assay type: biochemical, bovine; rat; conditions: AGE breaking, 16 hours 37° C., detection with anti-AGE-RNase antibody; read-out: IC50 (mM) Anti-AGE
Sequence (P02769 25-607): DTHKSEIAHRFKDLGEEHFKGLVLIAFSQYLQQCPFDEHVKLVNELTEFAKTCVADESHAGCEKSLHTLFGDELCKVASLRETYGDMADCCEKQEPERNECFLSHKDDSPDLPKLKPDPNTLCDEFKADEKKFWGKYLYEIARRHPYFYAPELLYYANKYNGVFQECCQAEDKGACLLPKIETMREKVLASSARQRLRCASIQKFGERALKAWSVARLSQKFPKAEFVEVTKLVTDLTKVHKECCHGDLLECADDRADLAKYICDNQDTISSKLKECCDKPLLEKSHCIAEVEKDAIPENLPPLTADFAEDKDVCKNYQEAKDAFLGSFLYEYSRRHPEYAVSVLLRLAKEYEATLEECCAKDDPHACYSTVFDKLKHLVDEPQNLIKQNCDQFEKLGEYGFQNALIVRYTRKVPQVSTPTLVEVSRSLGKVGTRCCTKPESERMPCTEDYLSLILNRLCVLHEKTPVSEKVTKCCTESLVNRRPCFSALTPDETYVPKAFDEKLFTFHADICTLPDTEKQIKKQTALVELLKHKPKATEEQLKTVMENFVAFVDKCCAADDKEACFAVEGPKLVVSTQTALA
Sequence (P02454 152-1207 partner limits assumed): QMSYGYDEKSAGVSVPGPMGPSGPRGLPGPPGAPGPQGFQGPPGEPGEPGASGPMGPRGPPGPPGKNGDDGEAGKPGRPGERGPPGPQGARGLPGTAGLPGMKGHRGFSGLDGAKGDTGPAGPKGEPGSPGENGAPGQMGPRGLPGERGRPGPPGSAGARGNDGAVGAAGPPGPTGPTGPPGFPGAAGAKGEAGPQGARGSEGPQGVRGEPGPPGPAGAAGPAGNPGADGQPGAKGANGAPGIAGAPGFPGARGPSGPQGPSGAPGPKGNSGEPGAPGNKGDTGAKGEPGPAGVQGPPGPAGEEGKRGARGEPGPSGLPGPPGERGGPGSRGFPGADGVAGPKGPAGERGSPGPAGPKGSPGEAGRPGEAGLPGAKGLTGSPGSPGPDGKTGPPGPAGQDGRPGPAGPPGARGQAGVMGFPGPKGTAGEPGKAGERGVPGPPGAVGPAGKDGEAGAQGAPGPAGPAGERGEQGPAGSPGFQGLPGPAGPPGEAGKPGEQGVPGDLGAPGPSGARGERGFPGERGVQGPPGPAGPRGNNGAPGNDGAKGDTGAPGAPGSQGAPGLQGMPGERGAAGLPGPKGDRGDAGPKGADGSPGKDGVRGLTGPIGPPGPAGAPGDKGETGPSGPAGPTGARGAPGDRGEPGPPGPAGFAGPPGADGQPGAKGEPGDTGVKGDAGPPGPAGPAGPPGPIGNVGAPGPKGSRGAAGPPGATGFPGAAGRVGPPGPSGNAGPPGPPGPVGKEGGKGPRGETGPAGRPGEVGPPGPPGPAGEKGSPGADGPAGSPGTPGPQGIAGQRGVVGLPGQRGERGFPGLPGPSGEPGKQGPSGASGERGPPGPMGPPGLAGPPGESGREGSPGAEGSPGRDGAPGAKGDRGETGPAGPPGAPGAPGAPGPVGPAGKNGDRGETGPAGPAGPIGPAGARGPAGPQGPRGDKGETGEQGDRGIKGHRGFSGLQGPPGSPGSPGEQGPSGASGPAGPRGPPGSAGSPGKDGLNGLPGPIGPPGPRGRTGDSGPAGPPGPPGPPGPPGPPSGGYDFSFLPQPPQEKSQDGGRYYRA
Sequence (P02466 86-1125 partner limits assumed): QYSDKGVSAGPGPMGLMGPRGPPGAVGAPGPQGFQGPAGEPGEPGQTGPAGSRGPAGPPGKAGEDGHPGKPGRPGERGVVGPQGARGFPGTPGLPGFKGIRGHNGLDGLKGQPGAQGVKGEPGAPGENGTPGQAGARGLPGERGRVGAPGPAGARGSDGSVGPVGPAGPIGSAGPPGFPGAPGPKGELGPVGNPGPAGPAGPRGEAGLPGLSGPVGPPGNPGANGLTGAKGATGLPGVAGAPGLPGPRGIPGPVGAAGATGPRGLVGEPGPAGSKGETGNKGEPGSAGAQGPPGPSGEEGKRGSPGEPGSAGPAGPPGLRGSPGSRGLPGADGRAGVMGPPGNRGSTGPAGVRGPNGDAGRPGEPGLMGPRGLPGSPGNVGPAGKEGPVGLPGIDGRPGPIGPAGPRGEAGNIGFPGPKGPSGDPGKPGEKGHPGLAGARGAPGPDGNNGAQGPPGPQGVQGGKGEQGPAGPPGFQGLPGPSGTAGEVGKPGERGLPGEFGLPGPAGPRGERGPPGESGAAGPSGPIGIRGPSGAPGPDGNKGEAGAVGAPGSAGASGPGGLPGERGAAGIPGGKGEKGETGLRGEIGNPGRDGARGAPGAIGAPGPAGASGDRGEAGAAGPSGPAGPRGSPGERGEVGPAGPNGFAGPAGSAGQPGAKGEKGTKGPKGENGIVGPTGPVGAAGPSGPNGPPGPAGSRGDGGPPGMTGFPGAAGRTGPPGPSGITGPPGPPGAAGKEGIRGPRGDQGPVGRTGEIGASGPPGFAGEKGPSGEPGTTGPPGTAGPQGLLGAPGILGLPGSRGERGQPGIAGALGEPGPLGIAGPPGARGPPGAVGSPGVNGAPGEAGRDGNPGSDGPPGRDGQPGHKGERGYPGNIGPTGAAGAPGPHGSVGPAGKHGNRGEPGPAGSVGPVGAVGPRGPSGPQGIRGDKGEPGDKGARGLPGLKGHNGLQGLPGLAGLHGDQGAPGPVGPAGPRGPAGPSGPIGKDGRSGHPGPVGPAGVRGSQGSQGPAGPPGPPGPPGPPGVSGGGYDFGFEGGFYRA
Doc: threshold 0.1 mM (exclusive). Items with IC50 beneath it return class 1; others return class 0.

COMPOUND STRUCTURE STRING | CLASS LABEL
Cc1c(CCO)sc[n+]1Cc1ccccc1.[Cl-] | class 0

Find out if reported IC50 for "Cc1csc[n+]1CC(=O)c1ccccc1.[Br-]" is less than 0.1 mM
class 0

Find out if reported IC50 for "NC(=O)C[n+]1csc2ccccc21.[Br-]" is less than 0.1 mM
class 0

Find out if reported IC50 for "Cc1csc[n+]1CC(N)=O" is less than 0.1 mM
class 0

Find out if reported IC50 for "Cc1c(CCO)sc[n+]1CC(=O)c1ccccc1" is less than 0.1 mM
class 0

Find out if reported IC50 for "O=C(C[n+]1ccsc1)c1ccccc1" is less than 0.1 mM
class 1

Find out if reported IC50 for "COC(=O)C[n+]1csc2ccccc21" is less than 0.1 mM
class 0

Find out if reported IC50 for "Cc1c(CCO)sc[n+]1CC(N)=O" is less than 0.1 mM
class 1
